Data provenance is patent US20230095569A1.

# TEST_TARGET: T1, human Claudin18.2 (CLDN18.2) (human, UniProt P56856 1-261)
# T1 construct: the cell line is named under assay; also called human Claudine18.2; hClaudin18.2
# PROTOCOL_SUMMARY: FACS on CHOK1-18.2 cells;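 further: antibody binding to the cells detected with a fluorescently labelled secondary antibody and read out as median fluorescence intensity by flow cytometry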
Criterion: FACS MFI strictly under 7000. Met: rule met. Not met: rule not met.

Lab note: confirm whether the reported FACS MFI for this binder is below 7000, equality not counting. binder: Ab15 (antibody, V domains shown, mouse monoclonal (hybridoma); also called mAb Ab15) VH: EVMLVESGGDLVKPGGSLKLSCAASGFTFSTYTMSWVRQTPEKRLEWVATIVGGGGYTYYLDSVKGRFTISRDNAKNTLYLQMISLRSEDTALYYCARMGLTQRNALDYWGQGTSITVSS VL: DIVMTQSPSSLSVSEGEKVTLNCKSSQSLFNSGNQKNYLAWYQQKPGQPPKLLIYGASTRESGVPDRFTGSGFGTDFTLTISSVQAEDLAVYYCQNDHTYPLTFGAGAKLELK rule not met

Lab note: confirm whether the reported FACS MFI for this binder is below 7000, equality not counting. binder: Ab23 (antibody, V domains shown, mouse monoclonal (hybridoma)) VH: EVMLVESGGGLVKPGGSLKLSCVASGFTFSSYTMSWVRQTPEKRLEWVATLSVVGGNTYYVDSVKGRFTISRDKAKNTLYLQMSSLRSEDTALYYCARLGQTQRNAMDYWGQGTSVTVSS VL: DIVMTQSPSSLSVSAGEKVTMSCKSSQSLLNSGNQKNYLAWYQQKPGQPPKLLIYGASTRESGVPDRFTGSGSGTDFTLTISSVQAEDLAVYYCQNDYSYPLTFGAGTKLEL rule not met

Lab note: confirm whether the reported FACS MFI for this binder is below 7000, equality not counting. binder: Ab03 (antibody, V domains shown, mouse monoclonal (hybridoma)) VH: EVQLQQSGPELVKPGASVKIACKASGYTFTDYNMDWVKQSHGKSLEWIGNINSYYGGTIYNQKFKGKATLTVDKSSSTAYMVLRSLTSEDNAVYYCARPHLGNALDYWGQGTSITVSS VL: DIVVTQSPSSLTVTPGEKVTMSCKSSQSLFNSGNQKNYLSWYQQNPGQPPKLLIYWASTRQSGVPDRFTGSGSGTDFTLTISSVQAEDLAGYYCQNDYIFPLTFGAGTKLELK rule met

Lab note: confirm whether the reported FACS MFI for this binder is below 7000, equality not counting. binder: Ab09 (antibody, V domains shown, mouse monoclonal (hybridoma)) VH: EVQLQQSGPELVKPGTSVKMSCKASGYTFTDYNMHWVKLSHGKSLEWIGYINPNNGGTIYNQRFKGKATLTVNKSSRTAYMDLRSLTSEDSAVYYCARQGYYGNSMDYWGQGNSVTVSS VL: DIVMTQSPSSLTVTPGERVTMSCKSSQSLLNGGNQRNYLTWYQQKPGQPPKLLIYWASTRESGVPDRFAGSGSGTDFTLTISRVQAEDLSFYYCQNSYFYPFTFGSGTKLDLR rule not met

Lab note: confirm whether the reported FACS MFI for this binder is below 7000, equality not counting. binder: Ab31 (antibody, V domains shown, mouse monoclonal (hybridoma)) VH: QIQLAQSGPELKKPGETVKISCKASGYSFTNYGMNWVKQAPGKGLKWMGWINTYSGETKYADDFKGRFDFSLETSARTAYLQIKNLKIEDTATYFCARRDAMDYWGQGTSVTVSS VL: DIVMTQAAPSVPVTPGESVSISCRSSKSLLNSNGNTYLYWFLQRPGQSPQLLIYRMSNLASGVPDRFSGSGSGTAFTLRISRVEAEDVGVYYCMQHLEFPFTFGSGTKLEIK rule met

Lab note: confirm whether the reported FACS MFI for this binder is below 7000, equality not counting. binder: Ab02 (antibody, V domains shown, mouse monoclonal (hybridoma)) VH: QVQLKESGPGLVAPSQSLSITCTVSGFSLTSYAINWVRQPPGKGLEWLGVIWTGGGTNYNSALKSRLSINKDNSKSQVFLKMNSLQTDDTARYYCARFYDGYYSWFAYWGQGTLVTVSA VL: DIVMTQSHKFMSTSVGDRVSITCKASQDVGTAVTWYQQKPGQSPKLLIYWASTRHTGVPDRFTGSGSGTDFTLTISNVQSEDLADYFCQQYSSYPFTFGSGTKLEIK rule met

Lab note: confirm whether the reported FACS MFI for this binder is below 7000, equality not counting. binder: Ab16 (antibody, V domains shown, mouse monoclonal (hybridoma)) VH: EVMLVESGGGLVKPGGSLKLSCAASGFTFNSYTMSWVRQTPEKRLEWVATITVIGGNTYYLDSVKGRFTISIDNGKNTLYLQMSSLRSEDTALYYCARMGQTQRNAMDYWGQGTSVTVSS VL: DIVMTQSPSSLSVSAGQKVTMRCKSSQSLLNSGNQKNYLAWYQQKLGQPPKLLIYGASTRESGVPDRFSGSGSGTDFTLTITSVQAEDLAVYYCQNDYSFPLTFGAGTKLELK rule not met

Lab note: confirm whether the reported FACS MFI for this binder is below 7000, equality not counting. binder: Ab30 (antibody, V domains shown, mouse monoclonal (hybridoma)) VH: QVQLKESGPGLVAPSQSLSITCTVSGFSLTKFGVNWVRQPPGKGLEWLGAIWGDGSTNYHSALISRLSINKDNSKSQVFLKLSSLQNVDTATYYCAKSGYGNAMDYWGHGTSVTVSS VL: DIVMTQSPSSLTVTTGEKVTLNCKSSQSLLNSGNLKNYLTWYQQRPGQPPKLLIYWASTRESGVPYRFTGSGSGTDFTLTISNVQAEDLAIYYCQNDYFFPFTFGSGTKLEIK rule not met

Lab note: confirm whether the reported FACS MFI for this binder is below 7000, equality not counting. binder: Ab25 (antibody, V domains shown, mouse monoclonal (hybridoma)) VH: EAQLQQSGPELVKPGASVKIFCKASGYTFTDYYINWVKQSHGKSLEWIGDINPNNGGTTYNQKFKGKATLTVDKSSSTASMELRRLTSEDSSVYYCARRDAMDYWGQGTSVTVSS VL: DIVMTQSQKFMSTTVGDRVSITCTASQNVGPAVAWYQQKPGQSPKLLIYSASRRFTGVPDRFTGSGSGTVFTLTINNVQSEDLADYFCQQYISYPLTFGAGTKLELK rule not met

Lab note: confirm whether the reported FACS MFI for this binder is below 7000, equality not counting. binder: Ab18 (antibody, V domains shown, mouse monoclonal (hybridoma)) VH: QVQLKESGPGLVAPSQSLSITCTVSGFSLTTYGINWVRQPPGKGLEWLGVIWGDGSTNYHSALISRLSISKDNSKSQVFLKLNSLQTDDTATYYCVKSSYYGNAMDYWGQGTSVTVSS VL: DIVMTQSPSSLTVTAGETVTMSCKSSQSLLNSGNQKNYLTWYQQKPGQPPKLLIYWASTRESGVPDRFTGSGSGTDFTLTISSVQAEDLAVYYCQNVYSYPFTFGSGTKLEI rule not met
